meta.source: ChEMBL document CHEMBL1134763

- Tgt: Nitric oxide synthase 1 (Homo sapiens) (UniProt P29475)
- Sequence (P29475 whole entry): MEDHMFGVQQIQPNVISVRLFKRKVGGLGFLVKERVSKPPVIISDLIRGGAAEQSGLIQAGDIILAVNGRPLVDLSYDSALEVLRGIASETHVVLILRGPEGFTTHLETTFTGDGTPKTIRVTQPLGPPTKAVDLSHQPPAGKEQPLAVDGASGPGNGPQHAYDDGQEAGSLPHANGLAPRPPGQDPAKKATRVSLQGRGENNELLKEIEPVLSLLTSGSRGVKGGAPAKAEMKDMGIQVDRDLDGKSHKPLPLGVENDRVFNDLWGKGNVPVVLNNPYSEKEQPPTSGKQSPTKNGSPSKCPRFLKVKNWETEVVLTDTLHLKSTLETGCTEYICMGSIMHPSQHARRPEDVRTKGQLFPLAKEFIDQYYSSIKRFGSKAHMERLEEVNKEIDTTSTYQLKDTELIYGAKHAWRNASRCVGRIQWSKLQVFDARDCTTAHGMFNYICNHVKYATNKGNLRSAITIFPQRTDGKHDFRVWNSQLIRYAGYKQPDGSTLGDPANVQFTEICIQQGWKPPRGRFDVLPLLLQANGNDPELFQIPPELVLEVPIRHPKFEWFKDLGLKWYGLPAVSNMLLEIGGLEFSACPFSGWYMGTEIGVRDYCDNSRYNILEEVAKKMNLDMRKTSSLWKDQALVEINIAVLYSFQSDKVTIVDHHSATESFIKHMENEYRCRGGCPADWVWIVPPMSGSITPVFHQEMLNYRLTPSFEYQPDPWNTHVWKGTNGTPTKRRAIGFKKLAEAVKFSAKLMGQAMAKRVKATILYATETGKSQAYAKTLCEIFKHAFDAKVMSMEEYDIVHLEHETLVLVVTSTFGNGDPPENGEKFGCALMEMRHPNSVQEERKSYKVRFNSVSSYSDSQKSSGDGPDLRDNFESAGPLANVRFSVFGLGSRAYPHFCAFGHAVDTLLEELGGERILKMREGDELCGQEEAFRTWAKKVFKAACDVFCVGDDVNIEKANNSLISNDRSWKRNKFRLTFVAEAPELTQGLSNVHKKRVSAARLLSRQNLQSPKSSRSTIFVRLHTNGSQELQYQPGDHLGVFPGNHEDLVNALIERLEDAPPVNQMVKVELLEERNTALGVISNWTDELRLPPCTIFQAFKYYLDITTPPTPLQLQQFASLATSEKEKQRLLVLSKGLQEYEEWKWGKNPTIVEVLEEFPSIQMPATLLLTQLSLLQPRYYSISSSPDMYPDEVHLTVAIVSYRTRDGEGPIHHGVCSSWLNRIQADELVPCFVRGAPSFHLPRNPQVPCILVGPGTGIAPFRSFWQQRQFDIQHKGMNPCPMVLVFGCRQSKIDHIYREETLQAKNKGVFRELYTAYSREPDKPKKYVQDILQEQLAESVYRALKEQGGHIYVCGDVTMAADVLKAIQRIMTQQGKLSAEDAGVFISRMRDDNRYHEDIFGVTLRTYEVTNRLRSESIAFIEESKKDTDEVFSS
- Protocol: Formation of Nitric Oxide by Nitric Oxide synthase I(% relative to NOHA)
- Assay type: functional
Observable: Initial rates

A = NCCCC/N=C(/N)NO
B = N/C(=N/CCCCC(N)C(=O)O)NO (centres undefined)
Qu. Look at A and B . Which one has the lower recorded Initial rates number? When you have decided, please share the label of that item.
Ans. A

I = CCCCCC/N=C(/N)NO
II = CCCCC/N=C(/N)NO
Qu. Look at I and II . Which one has the lower recorded Initial rates number? When you have decided, please share the label of that item.
Ans. I

I = N/C(=N/CCCC(N)C(=O)O)NO (centres undefined)
II = CCCCN/C(N)=N/O
Qu. For this pair, I and II , which shows a numerically higher Initial rates? When you have decided, please share the label of that item.
Ans. I
(I: 100, II: 65)
